- SYSTEM TESTED: proton pump (H+/K+-ATPase) (Sus scrofa)
- Construct: Gastric vesicles were prepared from hog stomach via centrifugal separation
- Sequence (P19156 whole entry): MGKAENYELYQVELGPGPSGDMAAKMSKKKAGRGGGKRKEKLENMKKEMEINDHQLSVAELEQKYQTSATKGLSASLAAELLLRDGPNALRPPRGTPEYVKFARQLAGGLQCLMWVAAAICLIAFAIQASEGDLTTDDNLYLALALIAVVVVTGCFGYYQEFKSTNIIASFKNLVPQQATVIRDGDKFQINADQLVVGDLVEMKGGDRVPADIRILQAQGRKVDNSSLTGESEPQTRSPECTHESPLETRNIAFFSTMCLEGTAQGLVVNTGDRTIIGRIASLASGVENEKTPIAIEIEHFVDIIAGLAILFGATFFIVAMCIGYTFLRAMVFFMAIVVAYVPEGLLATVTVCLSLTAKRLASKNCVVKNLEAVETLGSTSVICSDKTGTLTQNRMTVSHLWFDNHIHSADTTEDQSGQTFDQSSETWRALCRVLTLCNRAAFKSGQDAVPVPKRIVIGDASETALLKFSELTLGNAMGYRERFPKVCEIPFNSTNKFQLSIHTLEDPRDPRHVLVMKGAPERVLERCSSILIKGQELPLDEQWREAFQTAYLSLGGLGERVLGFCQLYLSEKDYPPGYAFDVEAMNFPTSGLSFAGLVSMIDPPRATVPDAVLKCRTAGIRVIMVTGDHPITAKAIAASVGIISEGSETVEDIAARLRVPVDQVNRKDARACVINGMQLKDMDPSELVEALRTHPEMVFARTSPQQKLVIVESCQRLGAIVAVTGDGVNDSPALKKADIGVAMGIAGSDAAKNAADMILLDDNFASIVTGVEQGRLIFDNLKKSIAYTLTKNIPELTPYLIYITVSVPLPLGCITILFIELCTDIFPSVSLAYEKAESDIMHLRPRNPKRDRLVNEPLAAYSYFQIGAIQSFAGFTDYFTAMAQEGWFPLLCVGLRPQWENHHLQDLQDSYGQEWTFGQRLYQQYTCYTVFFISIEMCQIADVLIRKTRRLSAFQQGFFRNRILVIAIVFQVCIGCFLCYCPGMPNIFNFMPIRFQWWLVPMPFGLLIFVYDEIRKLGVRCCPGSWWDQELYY
- Sequence (P18434 whole entry partner): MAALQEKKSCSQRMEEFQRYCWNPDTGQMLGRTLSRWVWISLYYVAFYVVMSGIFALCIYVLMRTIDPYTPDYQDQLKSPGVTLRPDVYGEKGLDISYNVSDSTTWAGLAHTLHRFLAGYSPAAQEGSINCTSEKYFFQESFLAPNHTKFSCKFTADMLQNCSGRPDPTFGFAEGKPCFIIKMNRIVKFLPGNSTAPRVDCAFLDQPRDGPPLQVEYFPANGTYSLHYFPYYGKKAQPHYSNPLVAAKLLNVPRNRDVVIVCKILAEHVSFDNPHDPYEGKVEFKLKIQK
- MEASUREMENT DESCRIPTION: Measurement of inhibitory effects on proton pump (H+/K+-ATPase) activities
- PROTOCOL CONDITIONS: hog gastric vesicles, K+-specific H+/K+-ATPase activity, Tris-HCl buffer pH 7.4, 37° C. for 40 minutes, malachite green Pi readout
Structures can show the parent of a compound that is named as a salt.
PROPERTY: IC50

1) CNCc1cn(S(=O)(=O)c2cccnc2)c2cc(-c3cnc(F)c(C)c3)ccc12 [Example 257, hydrochloride] ... 14200 nM
2) CNCc1cn(S(=O)(=O)c2cccnc2)c2cc(Nc3ccc(F)cc3C)cnc12 [Example 346, hydrochloride] ... 230 nM
3) CNCc1cn(S(=O)(=O)c2cccnc2)c2cc(Cc3ccc(C)c(F)c3F)ccc12 [Example 286, hydrochloride] ... 390 nM
4) CNCc1cn(S(=O)(=O)c2ccc(C(C)(C)C)cc2)c2cc(Nc3ccc(C)cc3F)ccc12 [Example 231, hydrochloride] ... 2620 nM
5) CNCc1cn(S(=O)(=O)c2cccnc2)c2cc(Nc3cc(-c4ccccc4)ccc3C)ccc12 [Example 16, hydrochloride] ... 780 nM
6) CNCc1cn(S(=O)(=O)c2cccnc2)c2cc(Nc3cc(F)c(F)cc3F)ccc12 [Example 74, hydrochloride] ... 450 nM
7) CNCc1cn(S(=O)(=O)c2cccnc2)c2cc(Nc3ccc(C(F)(F)F)cc3C)ccc12 [Example 32, hydrochloride] ... 810 nM

====

- SYSTEM TESTED: proton pump (H+/K+-ATPase) (Sus scrofa)
- Construct: Gastric vesicles were prepared from hog stomach via centrifugal separation
- MEASUREMENT DESCRIPTION: Measurement of inhibitory effects on proton pump (H+/K+-ATPase) activities
- PROTOCOL CONDITIONS: hog gastric vesicles, K+-specific H+/K+-ATPase activity, Tris-HCl buffer pH 7.4, 37° C. for 40 minutes, malachite green Pi readout
Where a name gives a salt, the structure may show the parent alone.
PROPERTY: IC50 (nM)

1. CNCc1cn(S(=O)(=O)c2cccnc2)c2cc(Nc3ccc(F)cc3Cl)ccc12 [Example 25, hydrochloride] ... 160
2. CNCc1cn(S(=O)(=O)c2ccc(Cl)cc2Cl)c2cc(Nc3ccc(C)cc3F)ccc12 [Example 235, hydrochloride] ... 2890
3. CNCc1cn(S(=O)(=O)c2cccc(C(F)(F)F)c2)c2cc(Nc3ccc(C(F)(F)F)nc3Cl)ccc12 [Example 195, hydrochloride] ... 1270
4. CNCc1cn(S(=O)(=O)c2cccnc2)c2cc(-c3ccnc(F)c3)ccc12 [Example 256, hydrochloride] ... 20000
5. CNCc1cn(S(=O)(=O)c2cccnc2)c2cc(Nc3ccc(C#N)cc3F)ccc12 [Example 38, hydrochloride] ... 2190
6. CNCc1cn(S(=O)(=O)c2cccnc2)c2cc(Cc3ccc(C)nc3F)ccc12 [Example 283, hydrochloride] ... 2630
7. CNCc1cn(S(=O)(=O)c2cccnc2)c2cc(-c3cccnc3C(F)(F)F)ccc12 [Example 254, hydrochloride] ... 9150

====

- SYSTEM TESTED: proton pump (H+/K+-ATPase) (Sus scrofa)
- Construct: Gastric vesicles were prepared from hog stomach via centrifugal separation
- MEASUREMENT DESCRIPTION: Measurement of inhibitory effects on proton pump (H+/K+-ATPase) activities
- PROTOCOL CONDITIONS: hog gastric vesicles, K+-specific H+/K+-ATPase activity, Tris-HCl buffer pH 7.4, 37° C. for 40 minutes, malachite green Pi readout
pIC50: −log10 of the molar value. Counter-ions that a name gives are not always drawn.
PROPERTY: pIC50

1) CNCc1cn(S(=O)(=O)c2cccnc2)c2cc(Nc3cc(F)c(F)cc3C)ccc12 [Example 73, hydrochloride] ... 6.80
2) CNCc1cn(S(=O)(=O)c2cccnc2)c2cc(Nc3cc(OC)cc(OC)c3)ccc12 [Example 63, hydrochloride] ... 5.88
3) CNCc1cn(S(=O)(=O)c2cccnc2)c2cc(Nc3ncccc3Cl)ccc12 [Example 100, hydrochloride] ... 6.10
4) CNCc1cn(S(=O)(=O)c2cccnc2)c2cc(Nc3ccc(OC)nc3Cl)ccc12 [Example 123, hydrochloride] ... 6.46
5) CNCc1cn(S(=O)(=O)c2cccnc2)c2cc(Nc3ccc(OC)cc3[N+](=O)[O-])ccc12 [Example 52, hydrochloride] ... 6.54
6) CNCc1cn(S(=O)(=O)c2cccnc2)c2cc(Nc3ccncc3Cl)ccc12 [Example 128, hydrochloride] ... 5.91
7) CNCc1cn(S(=O)(=O)c2cccnc2)c2cc(Nc3c(C)cccc3Cl)ccc12 [Example 61, hydrochloride] ... 6.54
8) CNCc1cn(S(=O)(=O)c2cccc(OC)c2)c2cc(Nc3ccc(C)cc3F)ccc12 [Example 162, hydrochloride] ... 7.70
9) COc1ccc(Nc2ccc3c(C(=O)N(C)C)cn(S(=O)(=O)c4cccnc4)c3c2)c(Cl)n1 [Example 332] ... 4.22
10) CNCc1cn(S(=O)(=O)c2cccnc2)c2cc(Nc3cccnc3C)ccc12 [Example 105, hydrochloride] ... 6.06
11) CNCc1cn(S(=O)(=O)c2cccc(F)c2)c2cc(Nc3ccc(F)cc3C)ncc12 [Example 354, hydrochloride] ... 6.10
12) CNCc1cn(S(=O)(=O)c2cccc(OC(F)F)c2)c2cc(Nc3ccc(C)nc3F)ccc12 [Example 181, hydrochloride] ... 5.89
13) CNCc1cn(S(=O)(=O)c2cccnc2)c2cc(Nc3ccc(Oc4ccccc4)cc3)ccc12 [Example 17, hydrochloride] ... 5.65
14) CNCc1cn(S(=O)(=O)c2cccc(F)c2)c2cc(Nc3ccc(C)cc3Cl)ccc12 [Example 137, hydrochloride] ... 7.22
15) CNCc1cn(S(=O)(=O)c2cccnc2)c2cc(Cc3ccc(OC(F)(F)F)cc3F)ccc12 [Example 279, hydrochloride] ... 5.66
16) CNCc1cn(S(=O)(=O)c2cccc(Cl)c2)c2cc(Nc3ccc(Cl)cc3C(F)(F)F)ccc12 [Example 151, hydrochloride] ... 6.29
17) CNCc1cn(S(=O)(=O)c2cccc(OC(F)F)c2)c2cc(Cc3ccc(C)c(F)c3F)ccc12 [Example 290] ... 6.03
18) CNCc1cn(S(=O)(=O)c2cccnc2)c2cc(-c3cncnc3)ccc12 [Example 258, hydrochloride] ... 4.70
19) CNCc1cn(S(=O)(=O)c2cccnc2)c2cc(-c3ccc(N)cc3)ccc12 [Example 246] ... 6.28
20) CNCc1cn(S(=O)(=O)c2cccnc2)c2cc(Nc3ccc(F)c(F)c3)ccc12 [Example 62, hydrochloride] ... 6.03
21) CNCc1cn(S(=O)(=O)c2cccnc2)c2cc(-c3ccc(OC)nc3)ccc12 [Example 248] ... 4.70
22) CNCc1cn(S(=O)(=O)c2cccnc2)c2cc(Nc3c(F)cc(F)cc3F)ccc12 [Example 82, hydrochloride] ... 6.35
23) CNCc1cn(S(=O)(=O)c2ccc(F)c(F)c2)c2cc(Nc3ccc(C)cc3F)ccc12 [Example 237, hydrochloride] ... 6.00
24) CNCc1cn(S(=O)(=O)c2cccc(F)c2)c2cc(Nc3ccc(C)cc3F)cnc12 [Example 339, hydrochloride] ... 6.43
25) CNCc1cn(S(=O)(=O)c2cccnc2)c2cc(Cc3ccc(Cl)nc3Cl)ccc12 [Example 285, hydrochloride] ... 6.19
26) CNCc1cn(S(=O)(=O)c2cccnc2)c2cc(Nc3ccc(OC)c(F)c3F)ccc12 [Example 70, hydrochloride] ... 6.52
27) CNCc1cn(S(=O)(=O)c2cccnc2)c2cc(Nc3ccnc(OC)c3Br)ccc12 [Example 131, hydrochloride] ... 6.11
28) CNCc1cn(S(=O)(=O)c2cccc(OC(F)(F)F)c2)c2cc(Nc3ccc(OC(F)(F)F)cc3Cl)ccc12 [Example 201, hydrochloride] ... 6.18
29) Cc1ccc(Nc2ccc3c(C(=O)N(C)C)cn(S(=O)(=O)c4cccnc4)c3c2)c(F)c1F [Example 329] ... 4.38

====

- Test system: basal gastric acid secretion
- MEASUREMENT DESCRIPTION: Inhibitory effect on the basal gastric acid secretion in pylorus-ligated rats (Shay's rat model)
- Type: in vivo, Sprague Dawley (SD) rats
- PROTOCOL CONDITIONS: 5 h, male SD rats, 3 mg/kg/2 ml into the duodenum, five hours after the ligation, total gastric acid secretion vs control group
Structures can show the parent of a compound that is named as a salt.
PROPERTY: inhibition in vivo at 3 mg/kg (%)

1) CNCc1cn(S(=O)(=O)c2cncc(F)c2)c2cc(Nc3ccc(C)cc3F)ccc12 [Example 210, hydrochloride] ... 43
2) CNCc1cn(S(=O)(=O)c2cccnc2)c2cc(Nc3ccc(C)c(F)c3F)ccc12 [Example 65, hydrochloride] ... 42
3) CNCc1cn(S(=O)(=O)c2cccnc2)c2cc(Cc3ccc(C)cc3F)ccc12 [Example 272, hydrochloride] ... 41
4) CNCc1cn(S(=O)(=O)c2cccc(Cl)c2)c2cc(Nc3ccc(OC)cc3F)ccc12 [Example 153, hydrochloride] ... 42
5) CNCc1cn(S(=O)(=O)c2cccc(OC(F)F)c2)c2cc(Nc3ccc(OC)nc3Cl)ccc12 [Example 182, hydrochloride] ... 44
6) CNCc1cn(S(=O)(=O)c2cccnc2)c2cc(Nc3ccc(Cl)cc3F)ccc12 [Example 28, hydrochloride] ... 44
7) CNCc1cn(S(=O)(=O)c2cccc(C)c2)c2cc(Nc3ccc(C)cc3F)ccc12 [Example 226, hydrochloride] ... 44
